test system: ATP; assay: switch fluorescence ratio, 500 uM ATP over buffer (Cy3 cluster intensity, sum of 5 cycles each) (fold (ratio)); higher = stronger signal-on switching upon ATP binding; sequences stand for … in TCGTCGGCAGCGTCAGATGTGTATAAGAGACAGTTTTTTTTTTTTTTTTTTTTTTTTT…TC; conditions: aptamer strand: ATP DNA aptamer (quencher-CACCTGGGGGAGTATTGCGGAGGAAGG + anchor), 100 nM annealed; ATP concentration: 500 uM;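 further: ATP exposure 15 min at 22 °C before imaging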
observedProperty: switch fluorescence ratio

These recorded examples may help you get a feel for the data.
>>> recordedmeasurement("GGTCTAAATT")
1
>>> recordedmeasurement("TGGGGGCCGT")
1.02
>>> recordedmeasurement("AAGATTGGTG")
0.991
>>> recordedmeasurement("ATGGGCCGAG")
0.989
>>> recordedmeasurement("CGGTTTTAGG")
1.01
>>> recordedmeasurement("TTTCTTCTTT")
1.02

With those in mind, consider the next sequence.
Input line: Endpoint output: switch fluorescence ratio of TTCGGTTTGT . Value?
Output line: 0.98
